tested on: DU-145; assay: NCI human cancer cell line screen, antiproliferative activity, Prostate DU-145; type: cell-based; settings: concentration corresponding to 50% growth inhibition, read-out: cytotoxicity GI50, Prostate DU-145
assayMetric: GI50 (µM)
Write down the numeric answer in µM and omit the unit.

Provide GI50, tested on DU-145, for COC(=O)CS(=O)(=O)[C@@H]1CC(=O)OC(C)CCCC=CC2CC(O)CC2C1O (stereo partly shown) [Compound 27] . 6

Provide GI50, tested on DU-145, for C[C@H]1CCC/C=C/[C@@H]2C[C@H](O)C[C@H]2[C@H](O)[C@H]([S+]([O-])c2ccc(O)cc2)CC(=O)O1 (stereo partly shown) [Compound 14] . 0.118

Provide GI50, tested on DU-145, for CC1CCCC=CC2CC(O)CC2C(O)C(SCCN(C)C)CC(=O)O1 (stereo not shown) [Compound 4] . 2.4

Provide GI50, tested on DU-145, for CC1CCCC=CC2CC(O)CC2C(O)[C@H](CC(=O)O)CC(=O)O1 (stereo partly shown) [Compound 6] . 38

Provide GI50, tested on DU-145, for CC1CCCC=CC2CC(O)CC2C(O)[C@H](Sc2ccc(O)cc2)CC(=O)O1 (stereo partly shown) [Compound 3] . 6.3

Provide GI50, tested on DU-145, for CC1CCCC=CC2CC(O)CC2C(O)[C@H]([S+]([O-])CCN)CC(=O)O1 (stereo partly shown) [Compound 18] . 0.17

###

For each record, write down the corresponding log10(GI50).
tested on: HCT-116; test: NCI human cancer cell line screen, antiproliferative activity, Colon HCT-116; assay type: cell-based; details: concentration corresponding to 50% growth inhibition, read-out: cytotoxicity GI50, Colon HCT-116
In our notation, the value equals log10 of GI50 in µM.

Given COc1ccc(S[C@@H]2CC(=O)OC(C)CCCC=CC3CC(O)CC3C2O)cc1 (stereo partly shown) [Compound 10] , respond with its log10(GI50). 1.52

Given CC1CCCC=CC2CC(O)CC2C(O)[C@H]([S+]([O-])CCO)CC(=O)O1 (stereo partly shown) [Compound 15] , respond with its log10(GI50). -0.68

Given CC1CCCC=CC2CC(O)CC2C(O)[C@H](CC(=O)O)CC(=O)O1 (stereo partly shown) [Compound 6] , respond with its log10(GI50). 1.36

Given COC(=O)CS(=O)(=O)[C@@H]1CC(=O)OC(C)CCCC=CC2CC(O)CC2C1O (stereo partly shown) [Compound 27] , respond with its log10(GI50). 0.57

Given COC(=O)CSC1CC(=O)OC(C)CCCC=CC2CC(O)CC2C1O (stereo not shown) [Compound 7] , respond with its log10(GI50). 1.28

Given CC1CCCC=CC2CC(O)CC2C(O)C([S+]([O-])C[C@H](N)C(=O)O)CC(=O)O1 (stereo partly shown) [Compound 21] , respond with its log10(GI50). -1.04

Given CC1CCCC=CC2CC(O)CC2C(O)[C@H](Sc2ccc(O)cc2)CC(=O)O1 (stereo partly shown) [Compound 3] , respond with its log10(GI50). 0.40

Given C[C@H]1CCC/C=C/[C@@H]2C[C@H](O)C[C@H]2[C@H](O)[C@H]([S+]([O-])c2ccc(O)cc2)CC(=O)O1 (stereo partly shown) [Compound 14] , respond with its log10(GI50). -1.59

Given CC1CCCC=CC2CC(O)CC2C(O)[C@H]([S+]([O-])CCN)CC(=O)O1 (stereo partly shown) [Compound 18] , respond with its log10(GI50). -1.07

Given CC1CCCC=CC2CC(O)CC2C(O)C(SCCO)CC(=O)O1 (stereo not shown) [Compound 5] , respond with its log10(GI50). 1.28

Given CC1CCCC=CC2CC(O)CC2C(O)C(SCCN)CC(=O)O1 (stereo not shown) [Compound 9] , respond with its log10(GI50). 0.54

###

For each record, write down the corresponding GI50.
test system: MDA-MB-435; assay: NCI human cancer cell line screen, antiproliferative activity, Breast MDA-MB-435; format: cell-based; details: concentration corresponding to 50% growth inhibition, read-out: cytotoxicity GI50, Breast MDA-MB-435
Write down the numeric answer in µM and omit the unit.

Given CC1CCCC=CC2CC(O)CC2C(O)[C@H](CC(=O)O)CC(=O)O1 (some centres unmarked) , respond with its GI50. 42

Given COC(=O)CSC1CC(=O)OC(C)CCCC=CC2CC(O)CC2C1O (centres unmarked) , respond with its GI50. 30

Given C[C@H]1CCC/C=C/[C@@H]2C[C@H](O)C[C@H]2[C@@H](O)[C@H]([S+]([O-])CCN(C)C)CC(=O)O1 (some centres unmarked) , respond with its GI50. 0.41

Given CC1CCCC=CC2CC(O)CC2C(O)[C@H](SCC(O)CO)CC(=O)O1 (some centres unmarked) , respond with its GI50. 36

Given CC1CCCC=CC2CC(O)CC2C(O)C(SCCO)CC(=O)O1 (centres unmarked) , respond with its GI50. 34

Given `C[C@H]1CCC/C=C/[C@@H]2C[C@H](O)C[C@H]2[C@H](O)/C=C/C(=O)O1` , respond with its GI50. 0.041

###

test system: HOP-62; assay: NCI human cancer cell line screen, antiproliferative activity, Lung HOP-62; type: cell-based; details: concentration corresponding to 50% growth inhibition, read-out: cytotoxicity GI50, Lung HOP-62
assayMetric: GI50 (µM)
Write down the numeric answer in µM and omit the unit.

Given CC1CCCC=CC2CC(O)CC2C(O)C(SCCN)CC(=O)O1 (stereo not drawn) [Compound 9] , respond with its GI50. 3.9

Given CC1CCCC=CC2CC(O)CC2C(O)C(SCCO)CC(=O)O1 (stereo not drawn) [Compound 5] , respond with its GI50. 34

Given CC1CCCC=CC2CC(O)CC2C(O)[C@H](CC(=O)O)CC(=O)O1 (stereo partly drawn) [Compound 6] , respond with its GI50. 30

Given CC1CCCC=CC2CC(O)CC2C(O)[C@H]([S+]([O-])CCO)CC(=O)O1 (stereo partly drawn) [Compound 15] , respond with its GI50. 0.29

Given COC(=O)CS(=O)(=O)[C@@H]1CC(=O)OC(C)CCCC=CC2CC(O)CC2C1O (stereo partly drawn) [Compound 27] , respond with its GI50. 5.1

###

test system: HCT-116; assay: NCI human cancer cell line screen, antiproliferative activity, Colon HCT-116; assay type: cell-based; settings: concentration corresponding to 50% growth inhibition, read-out: cytotoxicity GI50, Colon HCT-116
For each record, write down the corresponding GI50.
Write down the numeric answer in nM and omit the unit.

Given C[C@H]1CCC/C=C/[C@@H]2C[C@H](O)C[C@H]2[C@@H](O)[C@H]([S+]([O-])CCN(C)C)CC(=O)O1 (stereo partly shown) [Compound 20] , respond with its GI50. 280

Given CC1CCCC=CC2CC(O)CC2C(O)C(SCCN(C)C)CC(=O)O1 (stereo not shown) [Compound 4] , respond with its GI50. 750

Given CC1CCCC=CC2CC(O)CC2C(O)[C@H](SCC(O)CO)CC(=O)O1 (stereo partly shown) [Compound 8] , respond with its GI50. 36000

Given C[C@H]1CCC/C=C/[C@@H]2C[C@H](O)C[C@H]2[C@H](O)/C=C/C(=O)O1 [Compound 1, Brefeldin A] , respond with its GI50. 29

The values you see were collected from patent US6362218B1.
